Assay: recombinant barcode read abundance after kanamycin selection (control-corrected) (log10(CPM+1)); higher = more efficient recombination; sequences stand for … in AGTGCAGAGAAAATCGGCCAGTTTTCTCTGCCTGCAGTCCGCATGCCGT…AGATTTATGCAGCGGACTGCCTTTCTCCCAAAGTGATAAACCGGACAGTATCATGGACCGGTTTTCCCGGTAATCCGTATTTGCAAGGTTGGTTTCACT; site = the 11-nt target;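 note: IS621 recombinase and bridge RNA in Escherichia coli cells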
Provide the reported recombinant barcode read abundance (log10) of each item.
Give bare numbers.

| sequence-string | observed-measurement |
| --- | --- |
| ACTCTGGCTTGGGTTCTAACCTGTTGCCT (site ACTCTGGCTAG) | 0.372 |
| CTAAATACTTGGGTTCTAACCTGTTGCCG (site CTAAATACTCG) | 0.154 |
| TGGAGTCCTTGGGTTCTAACCTGTTGCTT (site TGGAGCCCTAA) | 0.276 |
| GACATCACTTGGGTTCTAACCTGTTGCCT (site GACATCCCTAG) | 0.0352 |

I need recombinant barcode read abundance (log10) for every entry listed below, if you could help.
1. ACATGAACTTGGGTTCTAACCTGTTGCAT (site ACATGAACTAT)
2. CTAATAGCTTGGGTTCTAACCTGTTGCCA (site AGTCCGTCTAT)
3. CAACCGGCTTGGGTTCTAACCTGTTGCCT (site CAACCGGCTAG)
4. TCAAAGGCTTGGGTTCTAACCTGTTGCCT (site TCCAAGGCTAG)
5. GCCATACCTTGGGTTCTAACCTGTTGCCT (site GCCAAACCTAG)

1.38
0.186
0.986
0.238
0.0715

Bench note: what recombinant barcode read abundance (log10) did GAGCGTCCTTGGGTTCTAACCTGTTGCAG (site GAGTTTCCTCT) show?
0.0296

All values here come from the supplement of paper PMC11208160.
